Test system: NCI-H322M lung
ASSAY_OVERVIEW: NCI-60 one-dose screen, 48 h
MEASUREMENT_PARAMETERS: 10 µM unless noted
This is part of a sample that, as a whole, favours compounds with a hit. Of some 83,000 tested, about 20% had one in any assay. Activity calls are given as the source filed them. The calls were made as follows: active = growth percent below 10; inactive = the rest.
Your reply should match one of these outcome classes. true = active, false = inactive

Query :: What did the test return for CC(C)c1ccc(Cc2cnc(NC(=O)c3cc(Br)cs3)s2)cc1 ?
Result :: false

Query :: What did the test return for Clc1ccc(/C=N\N=C\c2ccc(Cl)c(Cl)c2)cc1Cl ?
Result :: false

Query :: What did the test return for CCOC(=O)Cc1cnc(N/N=C(\C)c2cc3ccccc3o2)s1 ?
Result :: false

Query :: What did the test return for Cc1ccc(C[P+](c2ccccc2)(c2ccccc2)c2ccccc2)cc1 ?
Result :: false

---

System: NCI/ADR-RES ovarian
ASSAY_OVERVIEW: NCI-60 one-dose screen, 48 h
MEASUREMENT_PARAMETERS: 10 µM unless noted
The panel holds about 83,000 compounds, 20% with a hit somewhere; the sample as a whole holds those more often. The source made the active and inactive calls. Rule for the calls: active = growth percent below 10; inactive = the rest.
Your reply should match one of these outcome classes. label 1 = active, label 0 = inactive

Previously resolved entries follow.
COMPOUND	DISCRETE_LABEL
Cc1nc2sc(C(=O)Nc3ccc(Br)cc3)c(N)c2cc1C(O)c1ccccc1 (configuration not stated)	label 0
O=S(=O)(Nc1cc(Cl)ccc1Cl)c1ccc(-c2cnc(C3CC3)o2)cc1	label 0
O=c1c2cnn(-c3ccccc3)c2n2c(CN3CCOCC3)nnc2n1-c1ccccc1	label 0
O=C(O)CCCN1C(=O)/C(=C/c2cn(-c3ccccc3)nc2-c2ccc([N+](=O)[O-])cc2)SC1=S	label 0
COc1ccc(C(=O)C/C(=C\c2ccc(Cl)cc2)C(=O)NCc2ccccc2)cc1	label 0

Query :: What did the test return for [O-]/[N+](=C\c1ccc(-n2cc(Cc3ccccc3Cc3cn(-c4ccc(/C=[N+](/[O-])c5ccccc5)cc4)nn3)nn2)cc1)c1ccccc1 ?
Result :: label 0

Query :: What did the test return for CSc1nc2ccccc2cc1/C=C1/C=C(c2ccccc2)NC1=O ?
Result :: label 0

Query :: What did the test return for N#CC1=C(N)Oc2c(sc3c(Br)cccc23)C1c1ccc(Cl)cc1 (configuration not stated) ?
Result :: label 1

Query :: What did the test return for O=C(O)c1cn(C2CC2)c2cc(N3CCN(Cc4ccc5ccccc5c4O)CC3)c(F)cc2c1=O ?
Result :: label 0

Query :: What did the test return for Cc1ccccc1/C=C/C(=O)c1cccc(OCCCOc2cccc(C(=O)/C=C/c3ccccc3C)c2)c1 ?
Result :: label 0

Query :: What did the test return for COc1cc2c(cc1OCCCN1CCN(CCCOc3cc4c(cc3OC)C(=O)N3CC(F)(F)C[C@H]3C=N4)CC1)N=C[C@@H]1CC(F)(F)CN1C2=O ?
Result :: label 0

Query :: What did the test return for COc1ccc(C(=O)c2cc3c(N)c(C(=O)Nc4ccc(C)cc4)sc3nc2C)cc1 ?
Result :: label 0

Query :: What did the test return for Cc1sc2nc(NCCc3c[nH]c4ccc(Cl)cc34)[nH]c(=O)c2c1C ?
Result :: label 0

Query :: What did the test return for CCN1C(=O)N(CC)C2C1NN=c1s/c(=C\c3ccccc3F)c(=O)n12 (configuration not stated) ?
Result :: label 1

Query :: What did the test return for N=C(N)c1ccc(-c2ccc(-c3ccc(Cl)c(Cl)c3)s2)nc1 ?
Result :: label 0

Query :: What did the test return for CC(C)c1ccc(C(=O)Nc2sc3c(c2C(N)=O)CCC(=O)C3)cc1 ?
Result :: label 1

Query :: What did the test return for CCCCCCCCCc1ccc(OCCOCCOCCOCCOCCOCCOCCOCCOCCO)cc1 ?
Result :: label 1

---

System: NCI/ADR-RES ovarian
ASSAY_OVERVIEW: NCI-60 one-dose screen, 48 h (100 = growth as untreated, 0 = no growth, -100 = all killed)
MEASUREMENT_PARAMETERS: 10 µM unless noted
Compounds without any hit were thinned out: in the full panel of roughly 83,000, 20% have a hit.
In this section, each of the molecules is paired with its reported growth.
Hi! Could you send only the number? It should be in %, unit omitted.

GIVEN_SMILES	OUTPUT_UNIT	REPORTED
COc1ccc(-c2cc(-c3ccc(Cl)cc3)c(C#N)c(=O)n2Cc2ccc(C(=O)Nc3ccccc3N)cc2)cc1	%	71.2
Cn1ccc(=O)c(C(=O)Nc2nsc3ccc([N+](=O)[O-])cc23)c1	%	68

Turning to the following molecule.
Query :: Suppose we examine the molecule CC(=O)O[C@@H]1C[C@]2(C(C)C)O[C@@]1(C)[C@@H]1CCC(C)=C1[C@@H]2OC(=O)/C=C/c1ccccc1 ; what growth value has been reported?
Result :: 71.9

---

Tested on: SK-MEL-28 melanoma
ASSAY_OVERVIEW: NCI-60 one-dose screen, 48 h (100 = growth as untreated, 0 = no growth, -100 = all killed)
MEASUREMENT_PARAMETERS: 10 µM unless noted
Compounds without any hit were thinned out: in the full panel of roughly 83,000, 20% have a hit.
MEASURE: growth (%)
Hi! Could you send only the number? It should be in %, unit omitted.

Please review the entries below; each comes with its answer.
COMPOUND	REPORTED
O=C(O)c1ccc(-n2cc(/C=N/Nc3ccccc3)c(-c3ccc(F)cc3F)n2)cc1	74.1
CCCCNC(=O)Oc1ccc(/C(=C(/C)Cc2ccc(OC)cc2)c2ccc(OCCN(CC)CC)cc2)cc1	82.8
CC(C)=CCCC(C)c1ccc(C)c2c1OCN(CCCCCO)C2 (stereo unspecified)	115

Query :: Suppose we examine the compound CC1=C2[C@@H](CC1)[C@]1(C)O[C@@](C(C)C)(C[C@H]1OC(=O)[C@H](C)O)[C@H]2OC(=O)/C=C/c1ccccc1 ; what growth value has been reported?
Result :: 108

Query :: Suppose we examine the compound N=C(N)c1ccc(-c2ccc(-c3ccc(Cl)c(Cl)c3)s2)nc1 ; what growth value has been reported?
Result :: 107

Query :: Suppose we examine the compound COc1ccc(/C=N\Nc2nc(SCCC(C)C)nc(-c3ccc(OC)cc3)c2C#N)cc1 ; what growth value has been reported?
Result :: 104

Query :: Suppose we examine the compound COc1ccc(Nc2nnc(-c3ccc(OC)c(OC)c3)o2)cc1 ; what growth value has been reported?
Result :: 106

Query :: Suppose we examine the compound Cn1cc(-c2nonc2-c2cn(C)c3ccccc23)c2ccccc21 ; what growth value has been reported?
Result :: 57.4

Query :: Suppose we examine the compound COc1ccc(/C=C/C(=O)c2ccc(Nc3ccnc4cc(Cl)ccc34)cc2)cc1 ; what growth value has been reported?
Result :: 118

Query :: Suppose we examine the compound Cc1ccc2c(n1)C(=O)C(Br)=C(C1CCCC1)C2=O ; what growth value has been reported?
Result :: 117

Query :: Suppose we examine the compound COCCOc1cc2ncnc(N3CCN(c4cc(S(C)(=O)=O)c(C)cc4Cl)CC3)c2cc1OCCOC ; what growth value has been reported?
Result :: 107

---

System: SW-620 colon
ASSAY_OVERVIEW: NCI-60 one-dose screen, 48 h
MEASUREMENT_PARAMETERS: 10 µM unless noted
Compounds without any hit were thinned out: in the full panel of roughly 83,000, 20% have a hit. Activity calls are given as the source filed them. How the source made its calls: active means growth percent below 10; inactive means the rest.
Your reply should match one of these outcome classes. active, inactive

Query :: What did the test return for CSc1nnc(-c2cc3c([nH]c4ccccc43)c(-c3cccc(O)c3)n2)n1-c1ccccc1 ?
Result :: inactive

Query :: What did the test return for CCOC(=O)C/C(=N\Nc1cc(=O)[nH]c2ccc(Br)cc12)C(=O)OCC ?
Result :: inactive

Query :: What did the test return for C[C@@H](CO)[C@@H]1CCC=C2CC[C@]3(C)[C@H](CC[C@@H]4[C@@]5(C)CCCNC(C)(C)[C@@H]5CC[C@]43C)[C@H]21 ?
Result :: active

Query :: What did the test return for COc1cc(OC)c(/C=C/C(=O)c2c(OC)cccc2OC)c(OC)c1 ?
Result :: inactive

---

System: SR leukemia
ASSAY_OVERVIEW: NCI-60 one-dose screen, 48 h (100 = growth as untreated, 0 = no growth, -100 = all killed)
MEASUREMENT_PARAMETERS: 10 µM unless noted
Compounds without any hit were thinned out: in the full panel of roughly 83,000, 20% have a hit.
MEASURE: growth (%)
Hi! Could you send only the number? It should be in %, unit omitted.

Please review the entries below; each comes with its answer.
MOLECULE	growth (%)
COc1ccc(/C=C/C(=O)c2cccc(OCCCCOc3cccc(C(=O)/C=C/c4ccc(OC)c(OC)c4)c3)c2)cc1OC	69.4
COc1cc2c(c(OC)c1OC)CCC(c1cccc(NC(=O)c3ccc(Br)cc3)c1)O2 (stereo not given)	35
CSc1nc(N)c(NS(=O)(=O)c2ccc(C(C)=O)cc2)c(=O)[nH]1	119

Query :: Suppose we examine the molecule NC(=O)c1cccc(-n2ccc3cc(NC(=O)c4ccc(N5CCOCC5)c(C(F)(F)F)c4)ccc32)n1 ; what growth value has been reported?
Result :: 26.5
